propertyLabel: melting point

# count of solved cases: 2
| compound | melting point |
| --- | --- |
| O=c1cc(C2CCCC2)oc2ccc(OCCCCCCCl)cc12 | 125 to 126 °C |
| O=C(NNc1ccccc1C(F)(F)F)c1c(F)cccc1F | 129 to 130 °C |

Query compound follows.
### Prompt Supply melting point value. Item: CNC(=S)Nc1ccc(C2=NNC(=O)CC2C)cc1 (stereo not drawn)
### Response 213 °C

====

melting point reference

See these solved cases before continuing.
| molecule | melting point |
| --- | --- |
| C=CC(=O)N1CCc2cc(OC)c(OC)cc2C12CCC(C(=O)OCC)(C(=O)OCC)CC2C1c2cc(OC)c(OC)cc2CCN1C(C)=O (centres undefined) | 162 to 165 °C |
| O=c1c(O)c(-c2ccccc2)oc2cc(O)ccc12 | 128 °C |
| CCC(=O)C1=C(O)CC(c2c(C)cc(C)cc2C)CC1=O (centres undefined) | 86 to 88 °C |
| CC1(C)C(=O)C(c2cc(F)cc(F)c2)=C1c1ccc(S(C)(=O)=O)cc1 | 113 to 114 °C |
| O=C1OC(=O)C(c2ccc(C(=O)O)cc2)=C1c1ccccc1 | 247 to 249 °C |

### Prompt Specify reported melting point for the molecule shown: O=[N+]([O-])c1ccc(Cc2nc3c(s2)CCCC3)cc1
### Response 118 to 119 °C

### Prompt Identify measured melting point associated with COc1cc2nc(C(=O)O)c(=O)n(C)c2cc1OC
### Response 261 °C

### Prompt Read the entry CC1CN(c2nc(Cl)nc(C(C)O)n2)CC(C)N1 (centres undefined) and write its reported melting point.
### Response 126 to 128 °C

### Prompt Tell me melting point reported for CC(=O)Oc1cccc(C(C)=NOCCOc2ccc(CC3SC(=O)NC3=O)cc2)c1 (centres undefined)
### Response 30 to 50 °C

### Prompt For the molecule Cc1[nH]c(-c2ccccc2)nc1-c1ccc(Cl)c(Cl)c1 , give its measured melting point value.
### Response 169 to 171 °C

### Prompt Give the reported melting point for this molecule. COc1ccnc(CSc2nc3c(C(F)(F)F)cccc3[nH]2)c1C
### Response 175 °C

### Prompt Could you please provide reported melting point for CCc1nnc(-c2ccc(-c3ccc(C(=O)N4CCCc5cc6c(cc54)C4(CCN(C)CC4)CO6)cc3)c(C)c2)o1 ? Thanks!
### Response 241 to 243 °C

### Prompt Give the value of melting point reported for the following: O=C(c1ccccc1)N1CCNc2ncc(-c3cccnc3)cc21
### Response 219 to 220 °C

### Prompt Answer with the recorded melting point for the molecule listed here: CC1(C)COc2cc(Cl)c(F)cc2C(O)(c2ccccn2)C1 (centres undefined)
### Response 100 °C
